test system: L. dispar PBP 2; assay: Pheromone-binding protein (PBP) ligand binding assay, PBP2; set-up: species or system Lymantria dispar; conditions: member tested within library 3c{5, 1-5}
recorded_endpoint: PBP2 (% bound) (%)
The reply should contain only the number, in %.

Some entries whose results are on file:
Problem: Quick check: PBP2 (% bound) of CC(C)CCOc1ccc(OCCC(C)C)cc1 [3c{5,5}, 1,4-Di-(3-methyl-butyloxy) benzene] ?
Result: 1

Problem: Quick one: CCCOc1ccc(OCCC(C)C)cc1 [3c{3,5}, 1-(3-methyl-butyloxy)-4-propoxy benzene]
Result: 2

Problem: Quick one: CCOc1ccc(OCCC(C)C)cc1 [3c{2,5}, 1-ethoxy-4-(3-methyl-butyloxy) benzene]
Result: 3

Others:
Problem: Quick check: PBP2 (% bound) of COc1ccc(OCCC(C)C)cc1 [3c{1,5}, 1-methoxy-4-(3-methyl-butyloxy) benzene] ?
Result: 5

----------
Documented PBP1 (% bound) across a set of compounds
tested on: L. dispar PBP 1; assay: Pheromone-binding protein (PBP) ligand binding assay, PBP1; set-up: species or system Lymantria dispar; conditions: member tested within library 3c{4, 1-5}

Some entries whose results are on file:
Problem: What reported PBP1 (% bound) corresponds to CCCCOc1ccc(OCCC)cc1 on L. dispar PBP 1?
Result: 4 ± 0.3%

Problem: Quick one: CCCCOc1ccc(OC)cc1
Result: 20 ± 0.4%

Others:
Problem: What reported PBP1 (% bound) corresponds to CCCCOc1ccc(OCCC(C)C)cc1 on L. dispar PBP 1?
Result: 4 ± 0.4%

Problem: Quick one: CCCCOc1ccc(OCC)cc1
Result: 10 ± 0.4%

----------
test system: L. dispar PBP 1; test: Pheromone-binding protein (PBP) ligand binding assay, PBP1; parameters: species or system Lymantria dispar; conditions: tested as single compound; means ± S.E., 4 replicates
# PBP1 (% bound) >= 30% gives Criterion met, anything below gives Criterion not met

Problem: Decide: is the reported value of PBP1 (% bound) for CC(C)CCOc1ccc(OCCC(C)C)cc1 equal to or greater than 30%?
Result: Criterion not met

Problem: Quick one: CCCCCCCCCC[C@@H]1O[C@@H]1CCCCC(C)C (relative stereo) [(+)-disparlure, cis-(7R,8S)-7,8-epoxy-2-methyloctadecane, reference compound]
Result: Criterion met

Problem: Quick one: CCCCOc1ccc(OCCCC)cc1
Result: Criterion not met

Problem: Quick one: COc1ccc(OC)cc1
Result: Criterion met

Problem: Quick one: CCCOc1ccc(OCCC)cc1
Result: Criterion not met

Now examine the next entry.
Problem: Decide: is the reported value of PBP1 (% bound) for CCOc1ccc(OCC)cc1 equal to or greater than 30%?
Result: Criterion not met

----------
Documented PBP2 (% bound) across a set of compounds
test system: L. dispar PBP 2; experiment: Pheromone-binding protein (PBP) ligand binding assay, PBP2; design: species or system Lymantria dispar; conditions: member tested within library 3c{1, 1-5}
The reply should contain only the number, in %.

Some entries whose results are on file:
Problem: Quick check: PBP2 (% bound) of COc1ccc(OCCC(C)C)cc1 [3c{1,5}, 1-methoxy-4-(3-methyl-butyloxy) benzene] ?
Result: 2

Problem: Quick one: CCCOc1ccc(OC)cc1 [3c{1,3}, 1-methoxy-4-propoxy-benzene]
Result: 5

Others:
Problem: Quick check: PBP2 (% bound) of COc1ccc(OC)cc1 [3c{1,1}, 1,4-Dimethoxy benzene] ?
Result: 19

Problem: Quick one: CCOc1ccc(OC)cc1 [3c{1,2}, 1-ethoxy-4-methoxy benzene]
Result: 12

----------
tested on: male gypsy moth antenna response to pheromone (+)-1; experiment: EAG short-term (STI) and long-term (LTI) inhibition of pheromone signaling (Example 5); parameters: species or system Lymantria dispar; settings: Lymantria dispar, pure (+)-1 100 ng plume following mixed plume with 100 μg compound; mean ± S.E.; read-out: Activity (%): long-term inhibition (LTI)
# inhibition at 100 µg, 0.1 mg >= 30% gives true (1), anything below gives false (0)

Observe how each entry below is paired with its result.
Problem: Decide: is the reported value of inhibition at 100 µg, 0.1 mg for CCCOc1ccccc1O [2a{3}, 2-Propoxy phenol] equal to or greater than 30%?
Result: false (0)

Problem: Quick one: C=CCOc1ccc(O)cc1 [2c{6}, 4-Allyloxy phenol]
Result: false (0)

Problem: Quick one: CCCOc1ccc(OCCC(C)C)cc1 [3c{3,5}, 1-(3-methyl-butyloxy)-4-propoxy benzene]
Result: false (0)

Others:
Problem: Decide: is the reported value of inhibition at 100 µg, 0.1 mg for C=CCOc1cccc(OCCCC)c1 [3b{4,6}, 1-allyloxy-3-n-butoxybenzene] equal to or greater than 30%?
Result: false (0)

----------
test system: male gypsy moth antenna; assay: Coupled gas chromatographic-electroantennographic detection (GC-EAD); parameters: species or system Lymantria dispar; conditions: EAD peak size and shape (sharp/broad)
recorded_endpoint: GC-EAD activity

Problem: Quick check: GC-EAD activity of C=CCOc1cccc(OCCC)c1 ?
Result: None

Problem: Quick one: CCCOc1cccc(O)c1
Result: None

Problem: Quick one: CC(C)CCOc1cccc(O)c1
Result: None

Problem: Quick one: CCOc1cccc(OC)c1
Result: Trace

Problem: Quick one: CC(C)CCOc1ccccc1OCCC(C)C
Result: None

Problem: Quick one: CCCCOc1cccc(OCCC(C)C)c1
Result: None

Problem: Quick one: CCCOc1ccccc1OC
Result: + sharp

Problem: Quick one: C=CCOc1ccccc1OCC
Result: + broad

Others:
Problem: Quick check: GC-EAD activity of CC(C)CCOc1ccc(O)cc1 ?
Result: None

Problem: Quick one: CCCOc1ccccc1OCC
Result: + sharp

Problem: Quick one: C=CCOc1ccc(OCC=C)cc1
Result: Trace

Problem: Quick one: C=CCOc1ccc(OCCC)cc1
Result: + broad

Problem: Quick one: CCCCOc1cccc(OCCC)c1
Result: None

Problem: Quick one: C=CCc1ccc(OC)c(OC)c1
Result: None

Problem: Quick one: C=CCOc1ccc(OCC)cc1
Result: Trace

Problem: Quick one: C=CCOc1cccc(O)c1
Result: None

Problem: Quick one: CCOc1ccccc1OCC
Result: + sharp

Problem: Quick one: CCCCOc1ccccc1OCCC
Result: ++ sharp

Problem: Quick one: CCCCOc1ccccc1OCC
Result: ++ sharp

Problem: Quick one: CCCOc1cccc(OC)c1
Result: Trace

----------
tested on: L. dispar PBP 1; assay: Pheromone-binding protein (PBP) ligand binding assay, PBP1; parameters: species or system Lymantria dispar; details: member tested within library 3c{5, 1-5}
Documented PBP1 (% bound) across a set of molecules
The reply should contain only the number, in %.

Problem: What reported PBP1 (% bound) corresponds to COc1ccc(OCCC(C)C)cc1 on L. dispar PBP 1?
Result: 7

Others:
Problem: What reported PBP1 (% bound) corresponds to CCCOc1ccc(OCCC(C)C)cc1 on L. dispar PBP 1?
Result: 3

Problem: Quick one: CC(C)CCOc1ccc(OCCC(C)C)cc1
Result: 5

Problem: Quick one: CCOc1ccc(OCCC(C)C)cc1
Result: 2

----------
tested on: L. dispar PBP 1; experiment: Pheromone-binding protein (PBP) ligand binding assay, PBP1; design: species or system Lymantria dispar; details: member tested within library 3c{2, 1-5}
Documented PBP1 (% bound) across a set of molecules
The reply should contain only the number, in %.

Some entries whose results are on file:
Problem: Quick check: PBP1 (% bound) of CCOc1ccc(OCC)cc1 [3c{2,2}, 1,4-Diethoxy benzene] ?
Result: 14

Problem: Quick one: CCOc1ccc(OC)cc1 [3c{1,2}, 1-ethoxy-4-methoxy benzene]
Result: 30

Problem: Quick one: CCOc1ccc(OCCC(C)C)cc1 [3c{2,5}, 1-ethoxy-4-(3-methyl-butyloxy) benzene]
Result: 4

Others:
Problem: Quick check: PBP1 (% bound) of CCCOc1ccc(OCC)cc1 [3c{2,3}, 1-ethoxy-4-propoxy benzene] ?
Result: 10

----------
Tested on: L. dispar PBP 1
Test: Pheromone-binding protein (PBP) ligand binding assay, PBP1
Design: species or system Lymantria dispar
Conditions: member tested within library 3c{3, 1-5}
Procedure: A. The protein and ligand are incubated in buffer overnight. B. For half of the incubation mixture, the free ligand (L) is separated from the protein-bound ligand (P.L) by size-exclusion chromatography on P2 Gel (BioRad, exclusion limit 2000 Da). […] The extracts are analyzed by GC-MS, to obtain values for total ligand in solution (L+P.L) and for protein-bound ligand (P.L). […]
Documented PBP1 (% bound) across a set of compounds
State the result as a value with its unit after it.

Problem: Quick check: PBP1 (% bound) of CCCOc1ccc(OCC)cc1 ?
Result: 13 ± 0.3%

Problem: Quick one: CCCOc1ccc(OC)cc1
Result: 13 ± 0.3%

Problem: Quick one: CCCOc1ccc(OCCC(C)C)cc1
Result: 1 ± 0.2%

Next, consider the following compound.
Problem: Quick check: PBP1 (% bound) of CCCOc1ccc(OCCC)cc1 ?
Result: 4 ± 0.3%
